FYI, the data here is from patent US9206188B2.

Reported IC50 by item:
- measured-on: ITK (Homo sapiens (Human), UniProt Q08881)
- Sequence (Q08881 whole entry): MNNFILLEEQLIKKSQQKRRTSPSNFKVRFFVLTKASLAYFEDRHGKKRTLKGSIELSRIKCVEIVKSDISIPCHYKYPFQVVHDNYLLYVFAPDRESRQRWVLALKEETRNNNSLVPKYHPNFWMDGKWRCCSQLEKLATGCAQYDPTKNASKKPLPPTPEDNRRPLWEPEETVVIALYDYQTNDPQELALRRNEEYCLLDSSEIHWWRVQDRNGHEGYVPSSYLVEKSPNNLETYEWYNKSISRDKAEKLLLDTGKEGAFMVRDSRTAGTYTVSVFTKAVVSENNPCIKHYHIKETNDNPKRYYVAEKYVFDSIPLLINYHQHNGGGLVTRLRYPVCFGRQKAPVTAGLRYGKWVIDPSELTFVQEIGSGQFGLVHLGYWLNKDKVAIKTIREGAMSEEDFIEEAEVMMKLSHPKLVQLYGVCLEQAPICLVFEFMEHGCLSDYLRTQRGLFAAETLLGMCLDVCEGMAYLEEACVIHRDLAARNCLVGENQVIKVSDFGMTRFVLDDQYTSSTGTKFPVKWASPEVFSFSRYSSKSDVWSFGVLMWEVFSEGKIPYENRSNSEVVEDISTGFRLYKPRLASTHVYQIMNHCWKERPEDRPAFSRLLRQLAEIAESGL
- test-details: ITK kinase assay (radiometric filter binding, 10 μM ATP)
- Assay type: biochemical
- condition-set: 10-dose IC50 mode, 10 μM ATP; read-out: ITK kinase inhibition
- Experimental: All additions were done on ice, followed by the addition of ATP mix. Wells were uniformly mixed using an Eppendorff plate shaker and incubated at 30° C. for 20 min, and stopped by the addition of 5 μL of 3% phosphoric acid. Volume was increased to 100 μL by adding 0.8% phosphoric acid which was then transferred to PC filter mats (Millipore), pre-equilibrated with 70% ethanol and water. […] 100 μL scintillation fluid was added into each well and reading taken in Perkin Elmer TOPCOUNT beta counter. […]

For orientation, consider the following solved cases.
CCC#CC(=O)Nc1cccc(-c2cnc3[nH]cc(C)c3c2)n1 [Example 90]	< 100 nM
CCC#CC(=O)Nc1cccc(-c2cnc3[nH]ccc3c2)n1 [Example 78]	< 100 nM
C#CC(=O)Nc1cccc(-c2cnc3[nH]cc(Cl)c3c2)n1 [Example 79]	< 100 nM
Cc1n[nH]c2ncc(-c3ccc(Cl)c(NC(=O)/C=C/N(C)C)c3)cc12 [Example 49]	> 100 nM
C=CC(=O)Nc1cccc(-c2cnc3[nH]cc(-c4cccc(S(=O)(=O)CC)c4)c3c2)c1 [Example 36]	> 100 nM

# ---- query compound ----
## Input Identify measured IC50 associated with COc1cc(F)c(C)cc1-c1c[nH]c2ncc(-c3cc(F)cc(NC(=O)/C(C)=C/C(C)(C)C)c3C)cc12 [Example 173]
## Output < 100 nM

###

- measured-on: UniProt:P52333
- Sequence (P52333 whole entry): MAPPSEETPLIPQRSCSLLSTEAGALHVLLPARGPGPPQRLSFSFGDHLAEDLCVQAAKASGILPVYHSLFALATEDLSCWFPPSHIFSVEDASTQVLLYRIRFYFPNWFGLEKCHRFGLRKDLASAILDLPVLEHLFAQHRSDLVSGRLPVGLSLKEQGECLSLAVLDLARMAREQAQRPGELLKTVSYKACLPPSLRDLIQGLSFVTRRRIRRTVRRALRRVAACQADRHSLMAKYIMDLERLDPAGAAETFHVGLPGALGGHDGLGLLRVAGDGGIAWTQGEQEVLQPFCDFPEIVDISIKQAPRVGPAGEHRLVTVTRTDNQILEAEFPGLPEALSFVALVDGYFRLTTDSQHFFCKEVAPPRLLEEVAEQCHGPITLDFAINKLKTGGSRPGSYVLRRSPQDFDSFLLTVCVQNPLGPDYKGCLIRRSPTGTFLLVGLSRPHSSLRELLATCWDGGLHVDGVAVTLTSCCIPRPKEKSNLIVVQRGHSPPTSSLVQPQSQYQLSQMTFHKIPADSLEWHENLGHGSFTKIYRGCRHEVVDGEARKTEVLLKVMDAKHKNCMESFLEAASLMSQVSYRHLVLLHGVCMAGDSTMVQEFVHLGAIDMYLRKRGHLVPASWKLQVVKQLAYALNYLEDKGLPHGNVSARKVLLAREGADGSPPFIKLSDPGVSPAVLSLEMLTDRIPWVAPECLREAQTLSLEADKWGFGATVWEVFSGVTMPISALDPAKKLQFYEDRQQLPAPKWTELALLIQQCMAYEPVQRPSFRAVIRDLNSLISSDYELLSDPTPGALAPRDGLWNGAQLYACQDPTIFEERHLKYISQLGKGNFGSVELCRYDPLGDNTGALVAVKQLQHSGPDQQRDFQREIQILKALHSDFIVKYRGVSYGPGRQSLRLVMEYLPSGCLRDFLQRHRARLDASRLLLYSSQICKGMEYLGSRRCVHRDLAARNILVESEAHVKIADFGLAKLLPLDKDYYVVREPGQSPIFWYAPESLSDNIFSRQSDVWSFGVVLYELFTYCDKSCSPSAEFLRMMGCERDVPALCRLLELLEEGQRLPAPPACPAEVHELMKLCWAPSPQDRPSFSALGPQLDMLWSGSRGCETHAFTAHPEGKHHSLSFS
- test-details: JAK3 kinase assay (radiometric filter binding, 10 μM ATP)
- Format: biochemical
- condition-set: 10-dose IC50 mode, 10 μM ATP; read-out: JAK3 kinase inhibition
- Method: All additions were done on ice, followed by the addition of ATP mix. Wells were uniformly mixed using an Eppendorff plate shaker and incubated at 30° C. for 20 min, and stopped by the addition of 5 μL of 3% phosphoric acid. Volume was increased to 100 μL by adding 0.8% phosphoric acid which was then transferred to PC filter mats (Millipore), pre-equilibrated with 70% ethanol and water. […] 100 μL scintillation fluid was added into each well and reading taken in Perkin Elmer TOPCOUNT beta counter. […]
pIC50: −log10 of the molar value.
observed-property: pIC50

Consider the worked cases shown below.
C#CC(=O)Nc1cc(-c2cnc3[nH]cc(C)c3c2)ccc1F	> 7.00
C=CC(=O)Nc1ccccc1-c1cnc2[nH]cc(Cl)c2c1	< 6.00
C=CC(=O)Nc1ccc(-c2cnc3[nH]ccc3c2)cc1F	< 7.00
C#CC(=O)Nc1cc(-c2cnc3[nH]cc(Cl)c3c2)ccc1F	> 7.00
CC#CC(=O)Nc1cc(-c2cnc3[nH]cc(C)c3c2)ccc1F	< 7.00
C=CC(=O)Nc1cc(-c2cnc3[nH]ccc3c2)ccc1F	> 7.00
CCC#CC(=O)Nc1cc(-c2cnc3[nH]ccc3c2)ccc1F	> 7.00
COc1c(F)cc(F)cc1-c1c[nH]c2ncc(-c3cc(F)cc(NC(=O)/C=C/CN(C)C)c3C)cc12	> 7.00

## Input Return the recorded pIC50 value; entry: C#CC(=O)Nc1cccc(-c2cnc3[nH]cc(-c4cccc(S(=O)(=O)N(C)C(C)(C)C)c4)c3n2)c1
## Output < 7.00

## Input // fetch pIC50 given entry C=CC(=O)Nc1cc(-c2cnc3[nH]cc(Cl)c3c2)ccc1Cl
## Output < 6.00

## Input Respond only with pIC50 recorded for C=CC(=O)Nc1cc(-c2cnc3[nH]cc(-c4cc(F)cc(F)c4OC)c3c2)ccc1F
## Output < 7.00

## Input Give pIC50 for C#CC(=O)Nc1cc(-c2cnc3[nH]ccc3c2)ccc1F
## Output > 7.00
